assayedSystem: T1, recombinant human GARP-proTGFβ1 complex (Homo sapiens, UniProt P01137)
T1 construct: made in house
T1 sequence (P01137 30-390): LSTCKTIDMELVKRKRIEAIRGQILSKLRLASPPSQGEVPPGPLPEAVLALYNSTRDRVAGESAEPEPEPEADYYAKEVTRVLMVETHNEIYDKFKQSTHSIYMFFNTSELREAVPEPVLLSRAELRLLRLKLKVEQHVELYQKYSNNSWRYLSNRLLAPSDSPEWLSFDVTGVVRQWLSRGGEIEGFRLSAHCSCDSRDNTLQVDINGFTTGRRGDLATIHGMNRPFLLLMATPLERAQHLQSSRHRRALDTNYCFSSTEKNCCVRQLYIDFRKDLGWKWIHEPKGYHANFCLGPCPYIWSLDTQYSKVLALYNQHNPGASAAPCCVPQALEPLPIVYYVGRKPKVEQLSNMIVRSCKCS
T1 sequence (Q14392 20-627 partner limits assumed): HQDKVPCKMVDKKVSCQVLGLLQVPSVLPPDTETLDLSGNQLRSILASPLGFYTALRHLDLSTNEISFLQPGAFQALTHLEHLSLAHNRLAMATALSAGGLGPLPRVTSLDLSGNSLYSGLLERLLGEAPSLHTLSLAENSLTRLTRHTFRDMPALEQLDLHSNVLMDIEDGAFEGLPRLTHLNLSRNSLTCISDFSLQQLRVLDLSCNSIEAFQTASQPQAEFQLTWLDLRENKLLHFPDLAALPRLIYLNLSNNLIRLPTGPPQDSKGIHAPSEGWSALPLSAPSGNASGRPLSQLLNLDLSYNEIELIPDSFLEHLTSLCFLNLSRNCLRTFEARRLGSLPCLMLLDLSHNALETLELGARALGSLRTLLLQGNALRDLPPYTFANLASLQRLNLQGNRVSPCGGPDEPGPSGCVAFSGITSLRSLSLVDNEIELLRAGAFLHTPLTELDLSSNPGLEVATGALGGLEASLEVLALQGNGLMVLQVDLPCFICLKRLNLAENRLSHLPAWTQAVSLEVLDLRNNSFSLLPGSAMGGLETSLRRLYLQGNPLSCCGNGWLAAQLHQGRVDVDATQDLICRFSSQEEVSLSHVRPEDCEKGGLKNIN
protocolSummary: Octet (Biolayer Interferometry) in vitro kinetic binding
conditionLabel: in M
Can you tell me (E) hGARP, Cell-associated proTGFb1 (KD) for the items I'm about to list?
I'd appreciate a reply containing only the number, no unit.

[Q] Please look up its (E) hGARP, Cell-associated proTGFb1 (KD): Ab21: monoclonal antibody; VH SEQ ID NO: 129, VL SEQ ID NO: 15 (antibody, V domains shown) VH: EVQLVESGGGLVQPGGSLRLSCAASGFTFSSFSMDWVRQAPGKGLEWVSYISPDASTIYYADSVKGRFTISRDNAKNSLYLQMNSLRAEDTAVYYCARGVLDYGDMLDPWGQGTLVTVSS VL: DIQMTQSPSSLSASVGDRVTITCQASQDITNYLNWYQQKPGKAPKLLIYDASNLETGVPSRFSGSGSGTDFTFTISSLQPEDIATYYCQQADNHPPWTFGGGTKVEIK
[A] 8.33E−10

[Q] Proceed to Ab31: monoclonal antibody; VH SEQ ID NO: 139, VL SEQ ID NO: 15 (antibody, V domains shown) VH: EVQLVESGGGLVQPGGSLRLSCAASGFTFSSFSMDWVRQAPGKGLEWVSYISPDASTIYYADSVKGRFTISRDNAKNTLYLQMNSLRAEDTAVYYCARAVLDYGDMLDPWGQGTLVTVSS VL: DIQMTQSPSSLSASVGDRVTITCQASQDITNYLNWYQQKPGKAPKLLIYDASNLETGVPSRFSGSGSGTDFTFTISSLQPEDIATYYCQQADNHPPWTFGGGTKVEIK
[A] 5.81E−10

[Q] Now the same for Ab30: monoclonal antibody; VH SEQ ID NO: 138, VL SEQ ID NO: 15 (antibody, V domains shown) VH: EVQLVESGGGLVQPGGSLRLSCAASGFTFSSFSMDWVRQAPGKGLEWVSYISPDASTIYYADSVKGRFTISRDNAKNSLYLQMNSLRAEDTAVYYCARGTLDYGDMLDPWGQGTLVTVSS VL: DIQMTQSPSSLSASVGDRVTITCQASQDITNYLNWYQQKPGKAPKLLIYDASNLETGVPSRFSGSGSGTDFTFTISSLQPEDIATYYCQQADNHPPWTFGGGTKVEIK
[A] 8.33E−10

[Q] Then this molecule: Ab32: monoclonal antibody; VH SEQ ID NO: 140, VL SEQ ID NO: 15 (antibody, V domains shown) VH: EVQLVESGGGLVQPGGSLRLSCAASGFTFSSFSMNWVRQAPGKGLEWVSYISPSADTIYYADSVKGRFTISRDNAKNTLYLQMNSLRAEDTAVYYCARGVWDMGDMLDPWGQGTLVTVSS VL: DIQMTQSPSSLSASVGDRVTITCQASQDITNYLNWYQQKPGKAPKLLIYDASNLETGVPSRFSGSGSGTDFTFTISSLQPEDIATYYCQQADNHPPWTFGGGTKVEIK
[A] 4.96E−10
